system: Abp1 PPIs; experiment: DHFR-PCA of Abp1 SH3-swapped baits (Fig. 2B-D, S2C, S2F); type: cell-based, Saccharomyces cerevisiae; conditions: distance to Abp1 bait with BUD14 SH3; sheet Fig2C
outcome_measure: Protein-protein interaction distance between Abp1 SH3-swapped baits, to BUD14

Ask: Need Protein-protein interaction distance between Abp1 SH3-swapped baits, to BUD14 of PIN3 (protein, UniProt Q06449 2-215, looked up) [PSI+] inducibility protein 3: SASLINRSLTNIRTELDFLKGSNVISNDVYDQINKSLPAKWDPANAPRNASPASLEYVEALYQFDPQQDGDLGLKPGDKVQLLEKLSPEWYKGSCNGRTGIFPANYVKPAFSGSNGPSNLPPPPQYKAQELQQIPTQNSAASSYQQQPFPPPSTNYYQQPQQQPQQAPPPQQQQQQQQHQSSHSHLKSFGSKLGNAAIFGAGASIGSDIVNNIF , thanks.
Result: 19.7

Ask: Need Protein-protein interaction distance between Abp1 SH3-swapped baits, to BUD14 of LSB1 (protein, UniProt P53281 2-241, looked up) LAS seventeen-binding protein …: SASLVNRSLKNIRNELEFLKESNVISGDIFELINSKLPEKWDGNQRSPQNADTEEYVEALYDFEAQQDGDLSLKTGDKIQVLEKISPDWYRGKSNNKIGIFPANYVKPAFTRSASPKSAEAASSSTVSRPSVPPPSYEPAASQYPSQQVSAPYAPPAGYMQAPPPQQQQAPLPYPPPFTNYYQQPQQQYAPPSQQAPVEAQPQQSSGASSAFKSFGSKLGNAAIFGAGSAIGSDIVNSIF , thanks.
Result: 22.3

Ask: Need Protein-protein interaction distance between Abp1 SH3-swapped baits, to BUD14 of PEX13 (protein, UniProt P80667 1-386, looked up) Peroxisomal membrane protein …: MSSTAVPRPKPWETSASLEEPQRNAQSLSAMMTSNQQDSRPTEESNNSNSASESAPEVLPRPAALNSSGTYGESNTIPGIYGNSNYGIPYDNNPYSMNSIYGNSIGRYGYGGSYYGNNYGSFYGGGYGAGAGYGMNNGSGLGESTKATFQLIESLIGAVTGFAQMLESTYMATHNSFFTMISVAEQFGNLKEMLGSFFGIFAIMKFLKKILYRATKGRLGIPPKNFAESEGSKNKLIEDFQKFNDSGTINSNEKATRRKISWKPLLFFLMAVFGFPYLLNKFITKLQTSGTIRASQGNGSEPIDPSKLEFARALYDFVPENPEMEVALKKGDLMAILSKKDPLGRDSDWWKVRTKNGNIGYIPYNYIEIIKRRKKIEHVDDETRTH , thanks.
Result: 19.91

Ask: Need Protein-protein interaction distance between Abp1 SH3-swapped baits, to BUD14 of SHO1 (protein, UniProt P40073 1-367, looked up) High osmolarity signaling …: MSISSKIRPTPRKPSRMATDHSFKMKKFYADPFAISSISLAIVSWVIAIGGSISSASTNESFPRFTWWGIVYQFLIICSLMLFYCFDLVDHYRIFITTSIAVAFVYNTNSATNLVYADGPKKAAASAGVILLSIINLIWILYYGGDNASPTNRWIDSFSIKGIRPSPLENSLHRARRRGNRNTTPYQNNVYNDAIRDSGYATQFDGYPQQQPSHTNYVSSTALAGFENTQPNTSEAVNLHLNTLQQRINSASNAKETNDNSNNQTNTNIGNTFDTDFSNGNTETTMGDTLGLYSDIGDDNFIYKAKALYPYDADDDDAYEISFEQNEILQVSDIEGRWWKARRANGETGIIPSNYVQLIDGPEEMHR , thanks.
Result: 14.66

src = paper PMC7954794
